Source: patent US20170355757A1

Target: T1, human C5 R885H-mmh (human, UniProt P01031 19-1676)
T1 construct: also called human C5 variant R885H
Experiment: SPR, mAb captured via anti-hFc, 37C
// reported kon per item
reported_property: kon (M⁻¹ s⁻¹)

- H4H12159P (antibody, human IgG4, V domains shown, Human IgG4 Fc with S108P hinge mutation (H4H)) VH: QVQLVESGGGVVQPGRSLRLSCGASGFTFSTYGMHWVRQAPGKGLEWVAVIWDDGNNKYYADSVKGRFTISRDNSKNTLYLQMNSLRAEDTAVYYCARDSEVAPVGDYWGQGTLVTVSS VL: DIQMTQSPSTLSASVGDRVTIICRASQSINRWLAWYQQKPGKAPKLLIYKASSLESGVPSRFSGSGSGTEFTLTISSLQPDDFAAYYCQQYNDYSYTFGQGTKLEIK: 638000
- H4H11686N (antibody, V domains shown, also called H2M11686N) VH: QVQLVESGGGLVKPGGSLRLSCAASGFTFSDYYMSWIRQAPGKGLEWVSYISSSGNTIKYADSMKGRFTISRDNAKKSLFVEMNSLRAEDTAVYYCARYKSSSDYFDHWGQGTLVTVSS VL: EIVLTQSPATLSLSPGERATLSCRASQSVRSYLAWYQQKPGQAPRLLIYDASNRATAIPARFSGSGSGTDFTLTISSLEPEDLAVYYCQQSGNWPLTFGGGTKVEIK: 419000
